plant injury at 250 g/ha: recorded values
# Tested on: corn (Zea mays)
# assay_info: Test G Post-Emergence Protocol
# Assay type: in vivo
# reported_conditions: Zea mays, post-emergence, 312 h, 250 g ai/ha, evaluated after 13 days, 100=total damage to plant, 0=no damage to plant, read-out: Corn damage rating
# From the text: Seeds of corn (Zea mays), giant foxtail (Setaria faberi), barnyardgrass (Echinochloa crus-galli), ivy-leaved morning glory (Ipomoea hederacea), redroot pigweed (Amaranthus retroflexus) and velvetleaf (Abutilon theophrasti) were sown in standard soil in pots. […]
The reply should be a number in %, with the unit left off.

plant injury at 250 g/ha reported for this compound CN1CC(c2ccc(C(F)(F)F)c(C(F)(F)F)c2)C(C(=O)Nc2cccc(F)c2F)C1=O (stereo not drawn) [Compound 1714] : 50

response.value for CN1C[C@H](c2ccc(C(F)(F)F)cc2)[C@@H](C(=O)Nc2cccc(F)[n+]2[O-])C1=O (racemic) [Compound 1814] (field: plant injury at 250 g/ha) = 0

Per the record, CN1C[C@H](c2cccc(C(F)(F)F)c2)[C@@H](C(=O)Nc2cccc(O)c2F)C1=O (racemic) [Compound 1806] has plant injury at 250 g/ha of 40

The compound CN1C[C@H](c2ccc(C(F)(F)F)c(C(F)(F)F)c2)[C@@H](C(=O)Nc2ccccc2S(C)(=O)=O)C1=O (racemic) [Compound 1799] showed plant injury at 250 g/ha equal to 70

// field: plant injury at 250 g/ha; key: CN1C[C@@H](c2cccc(Oc3ccc(F)cc3)c2)[C@H](C(=O)Nc2cccc(F)n2)C1=O (racemic) [Compound 1829] ; value = 60

For record CCOc1c(Cl)cc(C2CN(C)C(=O)C2C(=O)Nc2cccc(F)c2F)cc1OC (stereo not drawn) [Compound 1721] the listed plant injury at 250 g/ha is 10

plant injury at 250 g/ha reported for this compound CN1C[C@H](c2ccc(C(F)(F)F)cc2)[C@@H](C(=O)Nc2ccc[n+]([O-])c2C(F)(F)F)C1=O (racemic) [Compound 1813] : 0

Input CN1C[C@@H](c2ccc(C(F)(F)F)cc2)[C@H](C(=O)Nc2ccncc2F)C1=O (racemic) [Compound 1652] . Output plant injury at 250 g/ha: 0

More entries:
Given item CCOc1cc(C)cc(C2CN(C)C(=O)C2C(=O)Nc2cccc(F)c2F)c1 (stereo not drawn) [Compound 1692] , the value recorded as its plant injury at 250 g/ha is 80

Kindly note the recorded plant injury at 250 g/ha for CN1C[C@H](c2cccc(C(F)(F)F)c2)[C@@H](C(=O)Nc2cnccc2C#N)C1=O (racemic) [Compound 1761] , which is 0

The compound listed as Cc1ccc(C2CN(C)C(=O)C2C(=O)Nc2cccc(F)c2F)cc1[N+](=O)[O-] (stereo not drawn) [Compound 1722] has a reported plant injury at 250 g/ha of 80

For record C=C(C)c1cccc([C@@H]2CN(C)C(=O)[C@H]2C(=O)Nc2cccc(F)c2C)c1 (racemic) [Compound 1828] the listed plant injury at 250 g/ha is 70

====

# Tested on: Kochia (Kochia scoparia)
# assay_info: Test A preemergence
# Assay type: in vivo
# reported_conditions: 500 g ai/ha, preemergence; 0 to 100 scale, 0 = no effect, 100 = complete control
experimental_endpoint: Plant response rating, Kochia

# annotated cases, reported Plant response rating, Kochia shown
Form field Plant response rating, Kochia, entry CC(C)Oc1cccc(C2CN(C)C(=O)C2C(=O)Nc2ccccc2S(C)(=O)=O)c1 (stereo not shown) : 70

Field Plant response rating, Kochia (entry CN1CC(c2ccc(F)c(F)c2)C(C(=O)Nc2ccccc2S(C)(=O)=O)C1=O (stereo not shown) ) reads 60

More entries:
The value of Plant response rating, Kochia measured for the compound O=C1NCC(c2ccc(I)cc2)C1C(=O)Nc1ccccc1Cl (racemic) turned out to be 30

Record Cc1ccc(C2CN(C)C(=O)C2C(=O)Nc2ccccc2C(F)(F)F)cc1 (stereo not shown) , field Plant response rating, Kochia: 70
